# Tested on: Plasmodium berghei
# run description: Screen against P. berghei liver stage (PbLuc), transformed with Luciferase, at 2uM
# Type: functional, HepG2
# test settings: tested at 2 uM
The campaign covered roughly 68,000 compounds. About 2,700 (4%) showed an effect of 50% or more. This excerpt belongs to a sample that is enriched for strong results.
readout type: INHIBITION (%)
A number alone suffices; assume %.

## Task Look up INHIBITION for this molecule: Cn1ccnc1SCCNC(=O)CC1CCc2ccccc21 (configuration not stated)
## Result 1.88

## Task # iterate: CC(C)(CO)CCCNC(=O)NC1(c2ccccc2F)CC1
## Result -3.66

## Task CC(Cn1cccn1)NC(=O)NCCc1cccnc1 (configuration not stated) ?
## Result 10.53

## Task Input CC(Cn1cccn1)NC(=O)NCCCN1CCCCCC1=O (configuration not stated)
## Result 48.37

## Task Now the same for Cc1ccc(CNC(=O)NC(C)Cn2cccn2)cn1 (configuration not stated)
## Result 49.01

## Task Another molecule to look at: CC(C)(CO)CCCNC(=O)NC1(C)Cc2ccccc2C1
## Result 29.87

## Task Please do the same for COc1ccc(Cl)cc1S(=O)(=O)N(C)CC(=O)Nc1cccnc1 as well.
## Result -66.51

## Task Moving on to the next molecule: CC(C)(CO)CCCNC(=O)NC1(c2cccc(F)c2)CC1
## Result 57.16

## Task # iterate: CCC(C)c1noc(C2CCN(C(=O)c3cccnc3)CC2)n1 (configuration not stated)
## Result -59.73

## Task Similarly, Cc1ccoc1C(=O)N1CCn2cc(CN3CCCC3)nc2C1 ?
## Result 37.2

## Task Follow-up item: COc1ccc(C(=O)C2CCCN(c3nccc(N)n3)C2)c(C)c1 (configuration not stated)
## Result 22.5

## Task Queued: O=C(CSCC1CC1)N1CCCC2(CCC(=O)N(CC3CC3)C2)C1 (configuration not stated)
## Result 1.42

---

# Test system: Plasmodium berghei
# run description: Screen against P. berghei liver stage (PbLuc), transformed with Luciferase, at 2uM
# Assay type: functional, HepG2
# test settings: tested at 2 uM
The whole screen tested about 68,000 compounds, of which about 2,700 (4%) showed an effect of 50% or more. Only a selection was taken, and strong results are over-represented in it overall.
readout type: INHIBITION (%)
A number alone suffices; assume %.

## Task Need INHIBITION of CCN1CC2(CCC1=O)CCN(Cc1cscn1)CC2 , thanks.
## Result 50.32

## Task Entry to check: O=C(N1CCOCC1)N1CCc2ncc(CN3CCCCC3)n2CC1
## Result 56.25

## Task Here is the next molecule: Cc1ncc(CNC2CCCN(Cc3noc(C4CC4)n3)C2)s1 (stereo not given)
## Result 18.46

## Task Now the same for CCC(CO)N(C/C(C)=C/c1ccco1)Cc1ccsc1 (stereo not given)
## Result 5.85

## Task Do the same for CCc1nc(CN2CCCC(NCc3cnc(C)s3)C2)no1 (stereo not given) please
## Result 77.57

## Task Now the same for O=C(NCC1CC1)C1CN(C(=O)c2cccs2)CC12CCOCC2 (stereo not given)
## Result -4.92

## Task Another molecule to look at: O=C(CCc1cccc(Cl)c1)NS(=O)(=O)Cc1ccon1
## Result 41.05

## Task Now consider Fc1cccc(NCc2ncc[nH]2)c1 .
## Result 51.08

## Task Thanks! And Cc1ccc(-n2cnnn2)cc1NCC(=O)Nc1cc(F)ccc1F ?
## Result 19.95

## Task Continue with O=C(O)c1c(Cl)ncn1-c1ccccc1
## Result 19.33

## Task How about this molecule: O=C(CCc1ccco1)NS(=O)(=O)Cc1ccon1
## Result 50.59

## Task Another molecule to look at: COc1cc(NCc2ncc[nH]2)ccc1Br
## Result 44.23

## Task Another molecule to look at: Cc1nc(CN2CCCC(NCCCc3ccccc3)C2)no1 (stereo not given)
## Result -6.4

## Task Another molecule to look at: Cn1ccnc1CNC1CCCN(Cc2noc(C3CC3)n2)C1 (stereo not given)
## Result 50.32

## Task Ok, now CCCn1nc2c(cc1=O)CN(Cc1nnc(C3CC3)o1)CC2
## Result -7.73

## Task // next record Cc1nc(CN2CCCC(NCCc3ccccc3Cl)C2)no1 (stereo not given)
## Result 56.67

## Task Similarly, Cc1cccc(CN2C[C@@H]3COC[C@]3(CNC(=O)C3CCC3)C2)c1 ?
## Result 55.92

## Task Please give the result for Cc1cc(CNC2CCCN(Cc3noc(C4CC4)n3)C2)on1 (stereo not given) too.
## Result 7.01

## Task Consider next the molecule O=C(NCC1CC1)C1CN(C(=O)c2ccco2)CC12CCOCC2 (stereo not given) in the same way.
## Result 14.39

## Task Try this molecule next: Cc1ccc(CN2CCCN(Cc3cscn3)CC2)cc1
## Result -6.56

## Task Do the same for Cc1ccc(CNC2CCCN(Cc3noc(C4CC4)n3)C2)s1 (stereo not given) please
## Result 54.29

## Task Also need CCc1nc(CN2CCCC(NCc3nc(C)c(C)o3)C2)no1 (stereo not given) , thanks.
## Result 36.73

## Task Cool, now O=C(NCC1CC1)C1CN(C(=O)c2ccnnc2)CC12CCOCC2 (stereo not given)
## Result 59.59

## Task Same question, CS(=O)(=O)CCCC(=O)Nc1cc(Cl)c(Cl)cn1 this time
## Result 59.08

## Task Also check Cc1noc(C)c1C(=O)N1CCC(n2cccn2)CC1
## Result 61.52
